Ref: patent US11957759B1

tested target: B-RAF V600E (Homo sapiens, UniProt P15056, V600E)
Construct: expressed in transfected cells; host or cells: T-Rex 293 cells (Invitrogen #R71007)
Sequence (P15056 whole entry V600E): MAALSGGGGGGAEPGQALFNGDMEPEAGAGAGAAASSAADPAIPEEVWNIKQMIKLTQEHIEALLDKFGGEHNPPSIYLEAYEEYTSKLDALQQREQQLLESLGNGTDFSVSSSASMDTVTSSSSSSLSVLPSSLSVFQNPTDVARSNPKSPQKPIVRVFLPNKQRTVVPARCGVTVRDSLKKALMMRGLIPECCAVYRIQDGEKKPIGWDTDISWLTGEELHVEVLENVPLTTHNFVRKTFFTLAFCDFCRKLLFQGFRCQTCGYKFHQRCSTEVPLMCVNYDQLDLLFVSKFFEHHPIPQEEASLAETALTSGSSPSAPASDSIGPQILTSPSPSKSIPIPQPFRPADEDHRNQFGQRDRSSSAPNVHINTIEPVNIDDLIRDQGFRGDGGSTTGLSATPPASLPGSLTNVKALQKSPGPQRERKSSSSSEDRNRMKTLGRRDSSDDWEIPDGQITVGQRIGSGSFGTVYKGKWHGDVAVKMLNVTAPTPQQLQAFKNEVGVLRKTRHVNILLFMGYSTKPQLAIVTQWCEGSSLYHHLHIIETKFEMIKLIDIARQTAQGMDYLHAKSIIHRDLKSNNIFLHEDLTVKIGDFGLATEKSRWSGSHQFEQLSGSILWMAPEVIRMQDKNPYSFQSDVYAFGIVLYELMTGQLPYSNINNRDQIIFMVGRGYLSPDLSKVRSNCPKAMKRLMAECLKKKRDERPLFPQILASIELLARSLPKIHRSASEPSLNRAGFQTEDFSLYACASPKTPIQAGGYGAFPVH
procedure details: Target protein degradation, assay C: T-Rex 293 cells, HA-BRAF_V600E, 384 well format
Type: cell-based
applied conditions: Assay C, T-Rex 293 HA-BRAF_V600E cells, 24 hours, Examples 83-269
endpoint: DC50

# example entries with known answers
N#Cc1c(NS(=O)(=O)N2CC[C@@H](F)C2)ccc(F)c1Oc1ccc2ncn(-c3ccc(N4CCC(CN5CCC(c6ccc7c(c6)CN([C@H]6CCC(=O)NC6=O)C7=O)CC5)C4)cc3)c(=O)c2c1 (some centres unmarked) [Example 221] :: 50 to 500 nM
N#Cc1c(NS(=O)(=O)N2CC[C@@H](F)C2)ccc(F)c1Oc1ccc2ncn(-c3ccc(N4CCC(CN5CC6(C5)CN(c5ccc7c(c5)CN(C5CCC(=O)NC5=O)C7=O)C6)CC4)cc3)c(=O)c2c1 (some centres unmarked) [Example 85] :: 5 to 50 nM
N#Cc1c(NS(=O)(=O)N2CC[C@@H](F)C2)ccc(F)c1Oc1ccc2ncn(-c3ccc(N4CCC(CN5CC(c6ccc7c(c6)CN(C6CCC(=O)NC6=O)C7=O)C5)CC4)cc3)c(=O)c2c1 (some centres unmarked) [Example 101] :: 50 to 500 nM
N#Cc1c(NS(=O)(=O)N2CC[C@@H](F)C2)ccc(F)c1Oc1ccc2ncn(-c3cccc(N4CCN(CC5CCN(c6ccc7c(c6)CN([C@H]6CCC(=O)NC6=O)C7=O)CC5)CC4)c3)c(=O)c2c1 [Example 239] :: 50 to 500 nM
N#Cc1c(NS(=O)(=O)N2CC[C@@H](F)C2)ccc(F)c1Oc1ccc2ncn(-c3cnc(C4(N5CCN(CC6CCN(c7ccc(NC8CCC(=O)NC8=O)cc7F)CC6)CC5)CC4)nc3)c(=O)c2c1 (some centres unmarked) [Example 102] :: 50 to 500 nM
N#Cc1c(NS(=O)(=O)N2CC[C@@H](F)C2)ccc(F)c1Oc1ccc2ncn(-c3ccc(N4CCN(CC5CN(c6ccc7c(c6)CN([C@@H]6CCC(=O)NC6=O)C7=O)C5)CC4)cc3)c(=O)c2c1 [Example 107] :: 5 to 50 nM

Lookup: DC50 lookup needed for N#Cc1c(NS(=O)(=O)N2CC[C@@H](F)C2)ccc(F)c1Oc1ccc2ncn(-c3ccc(N4CCC(CN5CC6(CCN(c7ccc8c(c7)CN([C@H]7CCC(=O)NC7=O)C8=O)CC6)C5)CC4)cc3)c(=O)c2c1 [Example 238] , thanks.
Found: 50 to 500 nM

Lookup: So what does the record say about DC50 for N#Cc1c(NS(=O)(=O)N2CC[C@@H](F)C2)ccc(F)c1Oc1ccc2ncn(-c3ccc(N4CCN(CCCOc5cccc6c5C(=O)N(C5CCC(=O)NC5=O)C6=O)CC4)nc3)c(=O)c2c1 (some centres unmarked) [Example 150] ?
Found: ≤ 5 nM
